Target: T1, human CD98, endogenously expressed on Molt-4 human acute lymphoblastic leukemia cells (human)
T1 chain: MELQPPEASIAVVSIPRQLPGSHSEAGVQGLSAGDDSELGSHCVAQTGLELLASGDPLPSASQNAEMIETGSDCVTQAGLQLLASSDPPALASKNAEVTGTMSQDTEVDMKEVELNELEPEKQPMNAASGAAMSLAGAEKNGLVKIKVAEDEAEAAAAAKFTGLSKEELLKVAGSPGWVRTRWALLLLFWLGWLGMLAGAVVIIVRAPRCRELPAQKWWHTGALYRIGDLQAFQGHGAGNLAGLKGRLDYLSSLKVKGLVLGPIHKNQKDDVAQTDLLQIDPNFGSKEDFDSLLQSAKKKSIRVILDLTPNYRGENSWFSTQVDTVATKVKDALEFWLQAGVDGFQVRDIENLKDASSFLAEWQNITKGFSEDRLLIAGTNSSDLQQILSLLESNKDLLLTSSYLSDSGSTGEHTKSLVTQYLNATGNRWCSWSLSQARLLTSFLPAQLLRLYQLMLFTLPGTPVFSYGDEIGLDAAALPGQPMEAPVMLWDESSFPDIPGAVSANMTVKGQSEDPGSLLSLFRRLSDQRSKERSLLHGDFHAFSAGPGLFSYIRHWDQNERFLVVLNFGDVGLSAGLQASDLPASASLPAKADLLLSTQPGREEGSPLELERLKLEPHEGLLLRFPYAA
Assay: cell-based or functional assay
For each entry below, report its % Cell Viability at 50 nM (Molt-4) value.
Give bare numbers, in %.

Example entries begin here.
[[record]]
binder = "CD98 (CL-huAb110)-ZZ (antibody, human IgG1, kappa, L234A L235A, V domains shown, synthon ZZ on reduced cysteine (see heavy chain); Bcl-xL inhibitor synthon ZZ on cysteines freed by TCEP reduction (Method G); DAR 1.0 by MS for the whole ADC) VH: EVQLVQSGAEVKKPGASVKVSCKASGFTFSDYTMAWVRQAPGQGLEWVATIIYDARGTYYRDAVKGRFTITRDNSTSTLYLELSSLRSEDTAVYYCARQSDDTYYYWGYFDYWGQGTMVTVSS VL: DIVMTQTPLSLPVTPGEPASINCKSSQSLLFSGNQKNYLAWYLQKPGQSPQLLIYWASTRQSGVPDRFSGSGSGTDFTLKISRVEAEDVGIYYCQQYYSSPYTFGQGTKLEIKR"
reported = 4.3

[[record]]
binder = "CD98 (CL-huAb104)-XW (antibody, human IgG1, kappa, L234A L235A, V domains shown, synthon XW on reduced cysteine (see heavy chain); Bcl-xL inhibitor synthon XW on cysteines freed by TCEP reduction (Method G); DAR 3.1 by MS for the whole ADC) VH: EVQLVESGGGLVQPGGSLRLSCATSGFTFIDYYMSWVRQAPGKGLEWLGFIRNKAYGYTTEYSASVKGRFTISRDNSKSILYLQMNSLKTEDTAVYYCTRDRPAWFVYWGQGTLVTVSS VL: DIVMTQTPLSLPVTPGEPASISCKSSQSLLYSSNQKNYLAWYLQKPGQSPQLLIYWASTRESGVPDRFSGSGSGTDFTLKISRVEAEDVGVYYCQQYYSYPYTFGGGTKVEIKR"
reported = 31.1

[[record]]
binder = "CD98 (CL-huAb104)-SR (antibody, human IgG1, kappa, L234A L235A, V domains shown, synthon SR on reduced cysteine (see heavy chain); Bcl-xL inhibitor synthon SR on cysteines freed by TCEP reduction (Method A); DAR 2.2 by MS for the whole ADC) VH: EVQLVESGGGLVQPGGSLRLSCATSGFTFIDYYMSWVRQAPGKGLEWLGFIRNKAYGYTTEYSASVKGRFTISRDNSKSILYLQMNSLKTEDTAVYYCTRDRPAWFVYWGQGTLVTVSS VL: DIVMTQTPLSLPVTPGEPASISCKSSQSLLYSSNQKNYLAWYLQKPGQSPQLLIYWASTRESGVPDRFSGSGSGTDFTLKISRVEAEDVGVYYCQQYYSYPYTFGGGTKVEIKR"
reported = 2.7

[[record]]
binder = "CD98 (CL-huAb104)-KZ (antibody, human IgG1, kappa, L234A L235A, V domains shown, synthon KZ on reduced cysteine (see heavy chain); Bcl-xL inhibitor synthon KZ on cysteines freed by TCEP reduction (Method A); DAR 2.6 by MS for the whole ADC) VH: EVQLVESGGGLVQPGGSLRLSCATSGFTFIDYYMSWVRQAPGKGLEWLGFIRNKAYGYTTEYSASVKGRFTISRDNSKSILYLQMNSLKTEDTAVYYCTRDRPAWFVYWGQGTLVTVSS VL: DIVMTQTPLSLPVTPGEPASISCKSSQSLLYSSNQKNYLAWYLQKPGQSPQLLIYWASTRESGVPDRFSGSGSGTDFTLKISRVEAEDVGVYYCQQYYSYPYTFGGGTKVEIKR"
reported = 21.2


Now consider a different binder.
Q: Please give measured % Cell Viability at 50 nM (Molt-4) of the following entry: CD98 (CL-huAb110)-SE (antibody, human IgG1, kappa, L234A L235A, V domains shown, synthon SE on reduced cysteine (see heavy chain); Bcl-xL inhibitor synthon SE on cysteines freed by TCEP reduction (Method A); DAR 1.9 by MS for the whole ADC) VH: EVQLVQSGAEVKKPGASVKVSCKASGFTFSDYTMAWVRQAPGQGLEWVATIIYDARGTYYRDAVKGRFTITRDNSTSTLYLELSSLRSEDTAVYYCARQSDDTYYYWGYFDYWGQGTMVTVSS VL: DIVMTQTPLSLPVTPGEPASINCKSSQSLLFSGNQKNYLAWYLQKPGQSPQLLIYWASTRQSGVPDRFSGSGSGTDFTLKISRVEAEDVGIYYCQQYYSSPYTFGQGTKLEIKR
Result: 5.7
